target: human recombinant GST cleaved CSNK1D (Homo sapiens (Human), UniProt P48730); assay: Purified enzyme assay (ADP-Glo Kinase Assay); assay type: biochemical; settings: 2 nM CSNK1D, peptide substrate 150 μM, ATP 20 μM, 45 minutes room temperature
Sequence (P48730 whole entry): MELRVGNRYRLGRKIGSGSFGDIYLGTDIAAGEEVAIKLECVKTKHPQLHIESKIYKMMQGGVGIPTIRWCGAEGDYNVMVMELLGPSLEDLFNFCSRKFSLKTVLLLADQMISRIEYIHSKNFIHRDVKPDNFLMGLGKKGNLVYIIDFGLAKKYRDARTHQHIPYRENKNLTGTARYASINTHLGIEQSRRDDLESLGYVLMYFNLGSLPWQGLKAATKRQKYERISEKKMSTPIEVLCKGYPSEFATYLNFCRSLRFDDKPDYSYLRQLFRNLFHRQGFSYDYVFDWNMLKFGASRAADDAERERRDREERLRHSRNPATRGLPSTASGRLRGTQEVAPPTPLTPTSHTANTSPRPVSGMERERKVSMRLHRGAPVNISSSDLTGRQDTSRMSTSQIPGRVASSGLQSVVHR
READOUT_KIND: AC50 (nM)

Need AC50 of Cn1cc(-c2ccnc3[nH]ccc23)c(-c2ccc(F)nc2)n1 , thanks.
8

Now the compound CCC(=O)Nc1cc(-c2cn(C)nc2-c2ccc(F)cn2)ccn1
5

Next compound: Cc1cc(-c2cn(C)nc2-c2cncc(Cl)c2)c2cn[nH]c2n1
18

Further, for Cc1cc(-c2cn(C3CC3)nc2-c2ccc(F)cn2)c2cn[nH]c2n1 ?
30

Entry to check: Cn1cc(-c2ccnc3ccc(C#N)cc23)c(-c2ccc(F)cn2)n1
113

What do we get for Cn1cc(-c2ccnc3[nH]ccc23)c(-c2ccc(OC(F)F)nc2)n1 ?
551

What do you have for Cc1ccnc2c(-c3cn(C)nc3-c3ccc(F)cn3)ccnc12 ?
7030

1: Cn1cc(-c2ccnc3[nH]ccc23)c(-c2cccnc2)n1
2: Cc1cc(-c2cn(C)nc2-c2ccc(F)cn2)c2c(C)n[nH]c2n1
Given 1 and given 2 , which shows the smaller recorded AC50? Mark your answer with the label of the selected entry.
2
(2: 12 nM, 1: 68 nM)

* * *

Biological target: human CSNK1D tagged with nanoluciferase (Homo sapiens (Human))
Sequence (P48730 whole entry): as above
Test: Whole Cell nBRET CSNK1D Binding Assay
Settings: living CHO cells stably expressing human CSNK1D-nanoluciferase; NanoBret tracer 130 nM; 2 hours 37° C.; read-out: CSNK1D BRET IC50
Procedure: This cellular binding assay uses a bioluminescence resonance energy transfer to measure human CSNK1D binding activity in living Chinese Hamster Ovary (CHO) cells that are stably expressing human CSNK1D tagged with nanoluciferase. The cells were grown to confluency in growth media (DMEM:F12, 50 u/mLPen/Strep, […] glutamine, and 0.6 mg/mL G418) in 10 cm^2 dishes. […] Donor (450 nm) and acceptor (630 nm) emissions are then measured within 10 minutes using a ClarioStar plate reader. […]
READOUT_KIND: IC50 (nM)

As a guide, the following entries are already answered.
Quick check: IC50 of Cn1cc(-c2ccnc3[nH]ccc23)c(-c2cnco2)n1 ?
1420

Same question, Cn1cc(-c2ccnc3cn[nH]c23)c(-c2ccc(F)cn2)n1 this time
460

Now consider Cn1cc(-c2ccnc3cc[nH]c23)c(-c2ccc(F)cn2)n1 and answer again.
2360

What do you get for COc1ccc2c(-c3cn(C)nc3-c3ccc(F)cn3)ccnc2c1 ?
373

And for Cn1cc(-c2ccnc3[nH]ncc23)c(-c2ncc(F)cc2F)n1 ?
390

I: CC(C)Cn1cc(-c2ccnc3[nH]ncc23)c(-c2ccc(F)cn2)n1
II: Cc1cc(-c2cn(C)nc2-c2ccncc2Cl)c2cn[nH]c2n1
Please state the entry with greater IC50 among I and II . Answer with the label corresponding to your selection.
II
(II: 8620 nM, I: 477 nM)

* * *

biological target: human recombinant GST cleaved CSNK1D (Homo sapiens (Human)); experiment: Purified enzyme assay (ADP-Glo Kinase Assay); type: biochemical; conditions: 2 nM CSNK1D, peptide substrate 150 μM, ATP 20 μM, 45 minutes room temperature
READOUT_KIND: AC50 (nM)

Field: example entries. Status: answers known.
Quick one: AC50 of Cc1cc(-c2cn(C)nc2-c2ccc(F)cn2)c2cc[nH]c2n1 ?
1

And then Cn1cc(-c2c(CC3COC3)cnc3[nH]ccc23)c(-c2ccc(F)cn2)n1 , what is it?
2

1: Cn1cc(-c2ccnc3[nH]ccc23)c(-c2cnccn2)n1
2: Cn1cc(-c2cc(N)nc3[nH]ccc23)c(-c2ccc(F)cn2)n1
3: Cn1cc(-c2ccnc3[nH]ccc23)c(-c2ccncn2)n1
Place the items in sequence of falling AC50. Answer by naming the labels in the order asked.
1, 3, 2
